Target: hERG (KCNH2) (Homo sapiens, UniProt Q12809)
Sequence (Q12809 whole entry): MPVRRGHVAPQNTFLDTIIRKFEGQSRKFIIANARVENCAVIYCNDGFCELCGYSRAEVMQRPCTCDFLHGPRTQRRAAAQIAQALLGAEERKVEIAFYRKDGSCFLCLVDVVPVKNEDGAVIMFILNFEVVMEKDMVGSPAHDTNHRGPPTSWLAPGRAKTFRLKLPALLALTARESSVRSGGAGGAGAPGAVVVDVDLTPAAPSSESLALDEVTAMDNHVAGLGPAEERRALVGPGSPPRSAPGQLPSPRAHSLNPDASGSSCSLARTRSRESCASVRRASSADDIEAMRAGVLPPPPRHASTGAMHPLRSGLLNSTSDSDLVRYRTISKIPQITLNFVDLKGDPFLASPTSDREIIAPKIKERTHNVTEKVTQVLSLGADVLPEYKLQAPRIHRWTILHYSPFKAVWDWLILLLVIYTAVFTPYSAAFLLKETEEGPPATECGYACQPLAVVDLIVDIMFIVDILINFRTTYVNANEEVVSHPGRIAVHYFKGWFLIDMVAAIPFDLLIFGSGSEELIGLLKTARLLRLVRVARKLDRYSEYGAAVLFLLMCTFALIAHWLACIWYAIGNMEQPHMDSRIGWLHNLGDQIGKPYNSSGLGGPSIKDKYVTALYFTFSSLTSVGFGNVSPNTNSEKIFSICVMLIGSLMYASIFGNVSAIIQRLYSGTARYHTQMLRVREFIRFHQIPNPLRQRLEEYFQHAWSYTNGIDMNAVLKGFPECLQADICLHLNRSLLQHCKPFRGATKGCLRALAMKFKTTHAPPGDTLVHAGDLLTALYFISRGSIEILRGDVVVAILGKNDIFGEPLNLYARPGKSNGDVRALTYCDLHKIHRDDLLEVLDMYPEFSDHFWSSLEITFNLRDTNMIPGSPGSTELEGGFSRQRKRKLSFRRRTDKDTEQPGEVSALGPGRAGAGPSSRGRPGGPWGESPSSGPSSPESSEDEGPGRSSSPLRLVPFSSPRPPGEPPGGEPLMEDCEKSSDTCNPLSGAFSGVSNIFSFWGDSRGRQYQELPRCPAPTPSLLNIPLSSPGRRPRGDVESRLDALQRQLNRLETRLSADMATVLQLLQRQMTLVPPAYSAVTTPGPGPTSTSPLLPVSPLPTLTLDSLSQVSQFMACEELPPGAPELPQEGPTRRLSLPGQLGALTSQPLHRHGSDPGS
Test: Inhibition of human ERG assessed as reduction in channel currents at 1 uM
# inhibition at 1 µM per entry

compound	inhibition at 1 µM / %
CN(C)C/C=C(/F)C(=O)Nc1cc2c(Nc3ccc(F)c(Cl)c3)ncnc2cc1O[C@H]1CCOC1	6.37
COc1cc2ncnc(Nc3ccc(F)c(Cl)c3)c2cc1NC(=O)/C(F)=C/CN(C)C	2.55
O=C(Nc1cc2c(Nc3ccc(F)c(Cl)c3)ncnc2cc1O[C@H]1CCOC1)/C(F)=C/CN1CCOCC1	0.94
COc1cc2ncnc(Nc3ccc(F)c(Cl)c3)c2cc1NC(=O)/C(F)=C/CN1CCCCC1	0.71
CN(C)C/C=C(\F)C(=O)Nc1cc2c(Nc3ccc(F)c(Cl)c3)ncnc2cc1O[C@H]1CCOC1	0
COc1cc(N)c(Cl)cc1C(=O)NC1CCN(CCCOc2ccc(F)cc2)CC1OC (configuration not stated) [CISAPRIDE]	92.4
CCOc1cc2ncnc(Nc3ccc(OCc4ccccn4)c(Cl)c3)c2cc1NC(=O)/C(F)=C/CN(C)C	0
